Provenance of the data: the supplement of paper PMC4894684

Listing of entries alongside the reported parasite growth.
# Test system: Toxoplasma gondii RH (in HFF)
# methodSummary: parasite growth relative to the screen mean (all compounds = 100%); higher = less inhibition of parasite growth
# testParameters: 5 µM; 72 h; oxygen 21 %
Where a name gives a salt, the structure may show the parent alone.
Kindly provide the numeric value in % only, without the unit symbol.

[[record]]
molecule = "CNC(=O)[C@@H](Cc1ccccc1)N(C)C(=O)[C@@H](Cc1ccc2ccccc2c1)N(C)C(=O)/C=C/CC(C)(C)N"
readingunit = "%"
valuemeasured = 135

[[record]]
molecule = "CCCCc1nc2ccn(Cc3cccs3)c(=O)c2n1Cc1ccc(-c2ccccc2-c2nn[nH]n2)cc1"
readingunit = "%"
valuemeasured = 104

[[record]]
molecule = "Fc1ccc([C@@H]2CCNC[C@H]2COc2ccc3c(c2)OCO3)cc1 [Paroxetine maleate]"
readingunit = "%"
valuemeasured = 39.5

[[record]]
molecule = "NS(=O)(=O)c1nn2cc(-c3ccccc3)nc2s1"
readingunit = "%"
valuemeasured = 108

[[record]]
molecule = "CC1(C)O[C@@H]2[C@@H](CO[C@@]3(COS(N)(=O)=O)OC(C)(C)O[C@@H]23)O1 [Topiramate]"
readingunit = "%"
valuemeasured = 112


Turning now to a further record.
Reported parasite growth, molecule COc1cc(Br)c(S(=O)(=O)Nc2ccc(Cl)c(O[C@@H]3CCN(C)C3)c2)cc1OC : ____
57.1

====

# System: Toxoplasma gondii RH (in HFF)
# methodSummary: parasite growth relative to the screen mean (all compounds = 100%); higher = less inhibition of parasite growth
# testParameters: 5 µM; 72 h; oxygen 21 %
Counter-ions that a name gives are not always drawn.
Listed next: entries and their corresponding parasite growth.
Reply with just the number (in %).

The cases that follow already have their parasite growth on record.
[[record]]
compound = "CCc1cc2c(c(CC)n1)CCC(=O)N2Cc1ccc(-c2ccccc2-c2nn[nH]n2)cc1 [ZD 7155 hydrochloride]"
readingunit = "%"
valuemeasured = 91.1

[[record]]
compound = "CC(C)NCC(O)COc1ccc(COCCOC(C)C)cc1 (racemic) [(±)-Bisoprolol hemifumarate]"
readingunit = "%"
valuemeasured = 77.7

[[record]]
compound = "O=C(O)COc1ccc(OCCNC[C@H](O)COc2ccccc2)cc1 [ICI 215,001 hydrochloride]"
readingunit = "%"
valuemeasured = 116

[[record]]
compound = "CCC(NC(C)C)C(O)c1ccc(O)c2[nH]c(=O)ccc12 (configuration not stated) [Procaterol hydrochloride]"
readingunit = "%"
valuemeasured = 132


Give parasite growth (Toxoplasma gondii RH (in HFF)) of the following compound: CC1(C)CCC(C)(C)c2cc(C3(c4ccc(C(=O)O)cc4)OCCO3)ccc21
115

State its parasite growth on Toxoplasma gondii RH (in HFF): Nc1[nH]nc2nc3ccccc3nc12
143

Value wanted: parasite growth (Toxoplasma gondii RH (in HFF)) of entry CC1(c2ccccc2)OC(C(=O)O)=CC1=O (configuration not stated) [Acifran]
114

Lab note: need parasite growth with Toxoplasma gondii RH (in HFF) for entry CC[N+](CC)(CC)CC(=O)Nc1c(C)cccc1C [QX 314 bromide] , please look it up.
63.6

Please tell me: parasite growth of CCOC(=O)[C@H](CCc1ccccc1)N[C@@H](C)C(=O)N1Cc2cc(OC)c(OC)cc2C[C@H]1C(=O)O [Moexipril hydrochloride] , system Toxoplasma gondii RH (in HFF)?
63.9

For the record CC1(CN2CCC(n3c(=O)[nH]c4ccccc43)CC2)OCc2ccccc2-n2cccc21 (configuration not stated) , what value of parasite growth is listed for Toxoplasma gondii RH (in HFF)?
113

====

Reported parasite growth values follow for various compounds
# Tested on: Toxoplasma gondii RH (in HFF)
# methodSummary: parasite growth relative to the screen mean (all compounds = 100%); higher = less inhibition of parasite growth
# testParameters: 5 µM; 72 h; oxygen 21 %
Where a name gives a salt, the structure may show the parent alone.

Examples with their reported parasite growth follow.
[[record]]
compound = "CCCCCCCCCCCCCCCCn1cc[n+](Cc2ccccc2)c1C"
valuemeasured = "< 0%"

[[record]]
compound = "Cn1cc(C2=C(c3cn(CCCSC(=N)N)c4ccccc34)C(=O)NC2=O)c2ccccc21 [Ro 31-8220 mesylate]"
valuemeasured = "< 0%"


Now look at this entry.
Could you share what parasite growth was measured for O/N=C/c1ccc(-c2ccc(O)c(F)c2)c(Cl)c1O , tested on Toxoplasma gondii RH (in HFF)?
< 0%

====

# Test system: Toxoplasma gondii RH (in HFF)
# methodSummary: parasite growth relative to the screen mean (all compounds = 100%); higher = less inhibition of parasite growth
# testParameters: 5 µM; 72 h; oxygen 21 %
Counter-ions that a name gives are not always drawn.
measuredQuantity: parasite growth (%)
The answer is to be given in %; state only the numeric part.

Consider the reported parasite growth for these compounds:
[[record]]
compound = "Cc1ccc(C(=O)Nc2ccc(S(=O)(=O)O)c3cc(S(=O)(=O)O)cc(S(=O)(=O)O)c23)cc1NC(=O)c1cccc(NC(=O)Nc2cccc(C(=O)Nc3cc(C(=O)Nc4ccc(S(=O)(=O)O)c5cc(S(=O)(=O)O)cc(S(=O)(=O)O)c45)ccc3C)c2)c1 [Suramin hexasodium salt]"
valuemeasured = 90

[[record]]
compound = "C[C@@H](CN1CCC(n2c(=O)[nH]c3cc(Cl)ccc32)CC1)NC(=O)c1ccc2ccccc2c1"
valuemeasured = 5.93


// switching to the query compound
# returns recorded parasite growth (system: Toxoplasma gondii RH (in HFF)) for CC(C)NCC(O)COc1cccc2ccccc12 (centres undefined) [Propranolol hydrochloride]
99.4

====

# System: Toxoplasma gondii RH (in HFF)
# methodSummary: parasite growth relative to the screen mean (all compounds = 100%); higher = less inhibition of parasite growth
# testParameters: 5 µM; 72 h; oxygen 21 %
Below is a list of entries, each paired with its recorded parasite growth value.
Quick note: give the figure in %, leave out the unit.

Completed entries (count: 2):
[[record]]
molecule = "CC(/C=C/c1cccc(Oc2ccc(F)cc2)c1)N(O)C(N)=O (stereo not drawn)"
valuemeasured = 184

[[record]]
molecule = "Nc1nc2c(cnn2CCc2ccccc2)c2nc(-c3ccco3)nn12"
valuemeasured = 100


Look at this molecule and give its reported parasite growth. CC(=Cc1ccc(C(=O)O)cc1)c1ccc2c(c1)C(C)(C)CCC2(C)C
120

====

The reader will find reported parasite growth values listed item by item below.
# Tested on: Toxoplasma gondii RH (in HFF)
# methodSummary: parasite growth relative to the screen mean (all compounds = 100%); higher = less inhibition of parasite growth
# testParameters: 5 µM; 72 h; oxygen 21 %
Structures can show the parent of a compound that is named as a salt.

# count of solved cases: 3
[[record]]
compound = "O=C(O)/C=C/c1ccc(Cn2ccnc2)cc1 [Ozagrel hydrochloride]"
measuredquantity = "parasite growth"
valuemeasured = "119%"

[[record]]
compound = "COc1cc2c(cc1OC)-c1cc3nc4ccccc4nc3n1C(C)(C)C2"
measuredquantity = "parasite growth"
valuemeasured = "< 0%"

[[record]]
compound = "COCCOC(=O)C1=C(C)NC(C)=C(C(=O)OC/C=C/c2ccccc2)C1c1cccc([N+](=O)[O-])c1 (configuration not stated)"
measuredquantity = "parasite growth"
valuemeasured = "27.9%"


What measured parasite growth goes with CCCC(=O)Nc1ncnc2c1ncn2[C@@H]1O[C@@H]2COP(=O)(O)O[C@H]2[C@H]1OC(=O)CCC [Dibutyryl-cAMP, sodium salt] ?
125%

Sample N[C@H](C(=O)O)c1cc(O)cc(O)c1 — what was its parasite growth?
119%

What value of measured parasite growth is listed for C[S+]([O-])c1ccc(-c2nc(-c3ccc(F)cc3)c(-c3ccncc3)[nH]2)cc1 (configuration not stated) ?
8.46%

What parasite growth value was documented for this compound, O=C(O)Cn1c(C(=O)Nc2nc(-c3ccccc3Cl)cs2)cc2ccccc21 ?
133%

parasite growth for CC1(C)C[C@@H]1C(=O)N/C(=C\CCCCSC[C@H](N)C(=O)O)C(=O)O [Cilastatin sodium] ?
117%

Which parasite growth reading was recorded for the compound Cc1ccc2c(c1)c1c3n2CCNC3CCC1 (configuration not stated) [Pirlindole mesylate] ?
152%

Form field: reported parasite growth of COc1cc2ncnc(Nc3ccc(Cl)cc3F)c2cc1OC
28.9%

I'd like to know its parasite growth. The compound in question is CCC1=C(C)CN(C(=O)NCCc2ccc(S(=O)(=O)NC(=O)N[C@H]3CC[C@H](C)CC3)cc2)C1=O [Glimepiride]
149%

What does the record list as parasite growth for C[C@H](NC[C@H](O)CP(=O)(O)CC1CCCCC1)c1ccc(Cl)c(Cl)c1 ?
129%
